- procedure_details: Safingol plasma pharmacokinetics in the phase I trial
- Format: in vivo, human
- conditions: human, plasma, intravenous, Mean day 1 safingol AUC, safingol 600 – 930 mg/m^2
metric: AUC

| molecule | measured_result |
| --- | --- |
| CCCCCCCCCCCCCCC[C@H](O)[C@@H](N)CO [Safingol, (2S,3S)-2-amino-1,3-octadecanediol] | 102 to 110 µM·h |

====

- procedure_details: Safingol plasma pharmacokinetics in the phase I trial
- Type: in vivo, human
- conditions: human, plasma, intravenous, Mean day 1 safingol Cmax, safingol 600 – 930 mg/m^2

| chemical_string | Cmax |
| --- | --- |
| CCCCCCCCCCCCCCC[C@H](O)[C@@H](N)CO | 23.9 to 26.8 µM |

Data provenance is paper PMC3078945.
